Test: Solubility in pure water
Type: physicochemical

Smiles repr: CC(=O)O[C@H]1C(=O)[C@@]2(C)[C@H]([C@H](OC(=O)c3ccccc3)[C@]3(O)C[C@H](OC(=O)[C@H](OC(=O)c4cc(C(=O)O)c(C(=O)O)cc4C(=O)O)[C@@H](NC(=O)c4ccccc4)c4ccccc4)C(C)=C1C3(C)C)[C@]1(OC(C)=O)CO[C@@H]1C[C@@H]2O
solubility: > 227 mg/mL

* * *

Test: Relative solubility by the 1-octanol and water partition method (UV absorption at 228 nm), taxol = 1
Where a name gives a salt, the structure may show the parent alone.
Reported Relative Solubility (p') values for the following compounds.

Compound: CC(=O)O[C@H]1C(=O)[C@@]2(C)[C@H]([C@H](OC(=O)c3ccccc3)[C@]3(O)C[C@H](OC(=O)[C@H](OC(=O)c4ccccc4C(=O)O)[C@@H](NC(=O)c4ccccc4)c4ccccc4)C(C)=C1C3(C)C)[C@]1(OC(C)=O)CO[C@@H]1C[C@@H]2O [Compound 4]
Relative Solubility (p'): 3
//
Compound: CC(=O)O[C@H]1C(=O)[C@@]2(C)[C@H]([C@H](OC(=O)c3ccccc3)[C@]3(O)C[C@H](OC(=O)[C@H](OC(=O)c4ccccc4S(=O)(=O)O)[C@@H](NC(=O)c4ccccc4)c4ccccc4)C(C)=C1C3(C)C)[C@]1(OC(C)=O)CO[C@@H]1C[C@@H]2O [Compound 11, 2'-(2-Sulfobenzoyl) taxol, sodium salt]
Relative Solubility (p'): 96
//
Compound: CC(=O)O[C@H]1C(=O)[C@@]2(C)[C@H]([C@H](OC(=O)c3ccccc3)[C@]3(O)C[C@H](OC(=O)[C@H](OC(=O)c4ccc(S(=O)(=O)O)cc4)[C@@H](NC(=O)c4ccccc4)c4ccccc4)C(C)=C1C3(C)C)[C@]1(OC(C)=O)CO[C@@H]1C[C@@H]2O [Compound 12, 2'-(4-sulfobenzoyl) taxol, sodium salt]
Relative Solubility (p'): 166
//
Compound: CC(=O)O[C@H]1C(=O)[C@@]2(C)[C@H]([C@H](OC(=O)c3ccccc3)[C@]3(O)C[C@H](OC(=O)[C@H](O)[C@@H](NC(=O)c4ccccc4)c4ccccc4)C(C)=C1C3(C)C)[C@]1(OC(C)=O)CO[C@@H]1C[C@@H]2O [Taxol]
Relative Solubility (p'): 1

* * *

Assay: Stability in pH 5 buffer / mildly acidic aqueous solution (HPLC or TLC, onset of cloudiness)
Format: physicochemical
Settings: method (b): 0.5 mg in 0.1 ml EtOH and 0.9 ml pH 5 buffer, room temperature
Where a name gives a salt, the structure may show the parent alone.
Reported Stabilities at pH 5 values for the following compounds.

Compound: CC(=O)O[C@H]1C(=O)[C@@]2(C)[C@H]([C@H](OC(=O)c3ccccc3)[C@]3(O)C[C@H](OC(=O)[C@H](OC(=O)CCC(=O)NCCS(=O)(=O)O)[C@@H](NC(=O)c4ccccc4)c4ccccc4)C(C)=C1C3(C)C)[C@]1(OC(C)=O)CO[C@@H]1C[C@@H]2O [--O2 CCH2 CH2 CONHCH2 --CH2 SO3 Na, sodium salt]
Stabilities at pH 5: > 24 h

Compound: CC(=O)O[C@H]1C(=O)[C@@]2(C)[C@H]([C@H](OC(=O)c3ccccc3)[C@]3(O)C[C@H](OC(=O)[C@H](OC(=O)c4cc(C(=O)O)c(C(=O)O)cc4C(=O)O)[C@@H](NC(=O)c4ccccc4)c4ccccc4)C(C)=C1C3(C)C)[C@]1(OC(C)=O)CO[C@@H]1C[C@@H]2O
Stabilities at pH 5: > 24 h

Compound: CC(=O)O[C@H]1C(=O)[C@@]2(C)[C@H]([C@H](OC(=O)c3ccccc3)[C@]3(O)C[C@H](OC(=O)[C@H](OC(=O)c4ccc(S(=O)(=O)O)cc4)[C@@H](NC(=O)c4ccccc4)c4ccccc4)C(C)=C1C3(C)C)[C@]1(OC(C)=O)CO[C@@H]1C[C@@H]2O [Compound 12, 2'-(4-sulfobenzoyl) taxol, sodium salt]
Stabilities at pH 5: > 24 h

Compound: CC(=O)O[C@H]1C(=O)[C@@]2(C)[C@H]([C@H](OC(=O)c3ccccc3)[C@]3(O)C[C@H](OC(=O)[C@H](OC(=O)c4ccccc4S(=O)(=O)O)[C@@H](NC(=O)c4ccccc4)c4ccccc4)C(C)=C1C3(C)C)[C@]1(OC(C)=O)CO[C@@H]1C[C@@H]2O [Compound 11, 2'-(2-Sulfobenzoyl) taxol, sodium salt]
Stabilities at pH 5: > 24 h
